Target: T1, AAV8
T1 construct: also called adeno-associated virus serotype 8
Assay: SPR, AAV on CM5 chip;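 note: surface plasmon resonance with AAV amine-coupled to the chip as ligand, nanobodies injected as analyte over a concentration series, rate constants and affinity fitted from binding curves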
Let's look at some binders and their measured kon.
Please respond with the number in M⁻¹ s⁻¹ and leave the unit unwritten.

The examples below pair each entry with its known result.
A4-009 (VHH) VHH: VQLQESGGGLAQPGGSLRLSCAASGSRFSINTMGWYRQAPGKQREFVAAVTRGGSTNYAGSVKGRFTISRDNAKNTVYLQMNTLRPEDTAVYYCHVDEVRQSSWTTSNIWGQGTQVTVSS : 21400
A4-006 (VHH) VHH: VQLQESGGGLVQPGGSLRLSCAASGRHFSINTMGWYRQAPGKQRELVAAVTRGGSTNYAGSVKGRFTISRDNAKNTVYLQMNSLRPEDTAVYYCHIDEVRQSSWTTSNIWGQGTQVTVSS : 381000
A4-044 (VHH) VHH: VQLQESGGGLVQPGGSLRLSCAASGSSFSINTMGWYRQAPGKQRELVATVTRGGVTNYADSVKGRFTISRDNAKNTVYLQMNSLRPEDTAVYYCHVDEVRQSSWTTSNLWGQGTQVTVSS : 158000

Query: Quick one: kon for A4-001 (VHH) VHH: VQLQESGGGLVQPGGSLRLSCAASGRSFSINTMGWYRQAPGKQRELVATVTRGGSTNYAGSVKGRFTISRDNAKNTVYLQMNSLRPEDTAVYYCHIDEVRQSSWTTSNIWGQGTQVTVSS ?
Response: 184000
